Target: CDK2 (Homo sapiens, UniProt P24941)
Construct: host or cells: HEK293-CDK2-Hibit
Test: HiBit Assay Protocol for CDK2 (HIBIT protein quantification, degradation)
Assay type: cell-based
Conditions: HEK293-CDK2-Hibit cells, compound treatment for 6 hours
readoutLabel: CDK2 HIBIT Protein Quantification Maximum (%)

[in] Form: Entry = Cn1nc(N2CCC(=O)NC2=O)c2ccc(C3CCN(Cc4ccc(F)c(S(=O)(=O)N5CCC(Nc6ncc7c(n6)N([C@@H]6CCC[C@@H](O)C6)C(=O)C76CC6)CC5)c4)CC3)cc21 | System = CDK2 (Homo sapiens, UniProt P24941) | CDK2 HIBIT Protein Quantification Maximum = ____
[out] 55

P = CC1CCCC1N1C(=O)C2(CC2)c2cnc(NC3CCN(S(=O)(=O)N4CCC5(CCN(C(=O)CCc6cccc7c6n(C)c(=O)n7C6CCC(=O)NC6=O)C5)C4)CC3)nc21 (centres unmarked)
Q = CC(c1cccc(S(=O)(=O)N2CC[C@H](Nc3ncc4c(n3)N([C@@H]3CCC[C@@H](O)C3)C(=O)C43CC3)[C@H](F)C2)c1)N1CCN(c2ccc3c(N4CCC(=O)NC4=O)nn(C)c3c2)CC1 (some centres unmarked)
[in] # compare CDK2 HIBIT Protein Quantification Maximum for P vs Q ; return the one with the smaller value Give the label of your selection.
[out] P
(P: 54%, Q: 91%)

A = CC1CCCC1N1C(=O)C2(CC2)c2cnc(NC3CCN(S(=O)(=O)N4CC5(CN(C(=O)CCCCc6ccc7c(c6)n(C)c(=O)n7C6CCC(=O)NC6=O)C5)C4)CC3)nc21 (centres unmarked)
B = CC1CCCC1N1C(=O)C2(CC2)c2cnc(NC3CCN(S(=O)(=O)N4CC5(CCCCN5C(=O)CCCCc5cccc6c5n(C)c(=O)n6C5CCC(=O)NC5=O)C4)CC3)nc21 (centres unmarked)
[in] # compare CDK2 HIBIT Protein Quantification Maximum for A vs B ; return the one with the smaller value Give the label of your selection.
[out] A
(A: 42%, B: 65%)

* * *

Biological target: CCNE1 (Homo sapiens, UniProt P24864)
Construct: host or cells: HEK293-CCNE1-Hibit
Sequence (P24864 whole entry): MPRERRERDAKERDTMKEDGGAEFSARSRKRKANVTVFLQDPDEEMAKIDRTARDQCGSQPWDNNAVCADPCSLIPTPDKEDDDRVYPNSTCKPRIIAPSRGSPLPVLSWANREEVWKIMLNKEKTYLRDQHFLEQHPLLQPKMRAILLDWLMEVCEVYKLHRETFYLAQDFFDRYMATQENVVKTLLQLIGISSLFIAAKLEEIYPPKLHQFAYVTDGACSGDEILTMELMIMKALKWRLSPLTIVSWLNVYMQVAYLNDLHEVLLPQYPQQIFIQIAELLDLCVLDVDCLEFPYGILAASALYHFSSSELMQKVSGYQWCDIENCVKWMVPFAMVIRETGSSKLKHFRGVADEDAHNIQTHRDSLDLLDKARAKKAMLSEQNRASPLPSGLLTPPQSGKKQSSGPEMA
Test: HiBit Assay Protocol for CCNE1 (HIBIT protein quantification, degradation)
Assay type: cell-based
Details: HEK293-CCNE1-Hibit cells, compound treatment for 6 hours
Description: HiBit Assay Protocol for CCNE1 • 1. The culture medium for HEK293-CCNE1-Hibit cell was prepared using EMEM with […]. • 2. Cells were cultivated in T-75 flasks in a cell culture incubator set at 37° C., 5% CO2, 95% relative humidity. […] Cells were harvested from flask into cell culture medium and then the cell number was counted. […] • 1. […] 20 μL of HiBit reagent was added into each well and the plates were spinned at room temperature at 1,000 RPM for 1 minute to be detected. […]
readoutLabel: CCNE1 HIBIT Protein Quantification Maximum (%)

[in] Returns the measured CCNE1 HIBIT Protein Quantification Maximum for the input compound. Input: C[C@@H](c1cc(S(=O)(=O)N2CC[C@H](Nc3ncc4c(n3)N([C@@H]3CCC[C@@H](O)C3)C(=O)C43CC3)[C@H](F)C2)ccc1F)N1CCN(c2ccc3c(N4CCC(=O)NC4=O)nn(C)c3c2)CC1
[out] 40

[in] Input CC1CCCC1N1C(=O)C2(CC2)c2cnc(NC3CCN(S(=O)(=O)N4CC5(CCCN(c6cccc(-c7cccc8c7n(C)c(=O)n8C7CCC(=O)NC7=O)c6)C5)C4)CC3)nc21 (stereo not shown)
[out] 7

A = O=C1CCC(N2Cc3cc(N4CCN(Cc5cccc(S(=O)(=O)N6CCC(Nc7ncc8c(n7)N([C@@H]7CCC[C@@H](O)C7)C(=O)C87CC7)CC6)c5)CC4)c(F)cc3C2=O)C(=O)N1 (stereo partly shown)
B = CC1CCCC1N1C(=O)C2(CC2)c2cnc(NC3CCN(S(=O)(=O)N4CC5(CCCN(C(=O)CCc6ccc7c(c6)n(C)c(=O)n7C6CCC(=O)NC6=O)C5)C4)CC3)nc21 (stereo not shown)
[in] # compare CCNE1 HIBIT Protein Quantification Maximum for A vs B ; return the one with the smaller value Give the label of your selection.
[out] B
(B: 22%, A: 44%)

I = Cn1nc(N2CCC(=O)NC2=O)c2ccc(N3CCN(Cc4cccc(S(=O)(=O)N5CCC(Nc6ncc7c(n6)N([C@@H]6CCC[C@@H](O)C6)C(=O)C76CC6)CC5)c4)CC3)cc21
II = CC1CCCC1N1C(=O)C2(CC2)c2cnc(NC3CCN(S(=O)(=O)N4CCN(C(=O)CCCc5ccc6c(c5)n(C)c(=O)n6C5CCC(=O)NC5=O)CC4)CC3)nc21 (stereo not shown)
[in] From the recorded data, which exceeds the other in CCNE1 HIBIT Protein Quantification Maximum: I or II ? Give the label of your selection.
[out] I

a = C[C@@H]1CN(S(=O)(=O)c2cccc(CN3CCC(c4ccc5c(N6CCC(=O)NC6=O)nn(C)c5c4)CC3)c2)CC[C@H]1Nc1ncc2c(n1)N([C@@H]1CCC[C@@H](O)C1)C(=O)C21CC1
b = CC(c1cccc(S(=O)(=O)N2CC[C@H](Nc3ncc4c(n3)N([C@@H]3CCC[C@@H](O)C3)C(=O)C43CC3)[C@H](F)C2)c1)N1CCN(c2ccc3c(N4CCC(=O)NC4=O)nn(C)c3c2)CC1 (stereo partly shown)
[in] # compare CCNE1 HIBIT Protein Quantification Maximum for a vs b ; return the one with the smaller value Give the label of your selection.
[out] a
